The reported measurements were obtained from patent US12365668B2.

Biological target: PI3Kγ (p110γ) Recombinant Human Protein (Homo sapiens (Human), UniProt P48736)
Sequence (P48736 whole entry): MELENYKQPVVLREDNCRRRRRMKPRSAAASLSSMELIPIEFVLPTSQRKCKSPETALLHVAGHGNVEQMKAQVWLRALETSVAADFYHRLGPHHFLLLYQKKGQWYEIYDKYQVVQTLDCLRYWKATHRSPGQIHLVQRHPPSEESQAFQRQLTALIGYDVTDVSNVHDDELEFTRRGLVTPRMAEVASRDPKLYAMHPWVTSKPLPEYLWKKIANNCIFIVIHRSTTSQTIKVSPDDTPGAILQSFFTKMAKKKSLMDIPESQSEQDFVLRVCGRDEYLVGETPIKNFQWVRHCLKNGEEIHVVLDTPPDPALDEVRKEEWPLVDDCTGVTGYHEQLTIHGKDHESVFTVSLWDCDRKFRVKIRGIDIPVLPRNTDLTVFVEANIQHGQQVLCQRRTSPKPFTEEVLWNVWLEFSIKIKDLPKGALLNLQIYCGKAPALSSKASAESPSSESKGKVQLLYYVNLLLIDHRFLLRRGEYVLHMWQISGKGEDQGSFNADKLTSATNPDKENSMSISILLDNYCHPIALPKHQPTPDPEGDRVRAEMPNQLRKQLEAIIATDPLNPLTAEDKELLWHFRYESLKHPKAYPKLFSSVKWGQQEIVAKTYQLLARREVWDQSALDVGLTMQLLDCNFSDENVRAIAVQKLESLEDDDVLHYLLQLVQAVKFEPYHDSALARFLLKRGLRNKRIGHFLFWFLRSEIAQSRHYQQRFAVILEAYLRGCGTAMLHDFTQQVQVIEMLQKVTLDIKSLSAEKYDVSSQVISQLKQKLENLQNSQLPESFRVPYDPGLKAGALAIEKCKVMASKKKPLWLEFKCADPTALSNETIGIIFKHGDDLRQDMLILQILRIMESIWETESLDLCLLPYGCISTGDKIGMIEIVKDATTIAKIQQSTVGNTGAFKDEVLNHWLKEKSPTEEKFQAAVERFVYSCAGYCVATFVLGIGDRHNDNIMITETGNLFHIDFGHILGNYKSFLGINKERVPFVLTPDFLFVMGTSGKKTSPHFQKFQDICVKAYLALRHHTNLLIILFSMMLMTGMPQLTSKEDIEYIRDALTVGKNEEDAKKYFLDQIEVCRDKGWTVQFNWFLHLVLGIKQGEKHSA
Assay: PI3K-γ Scintillation Proximity Assay
Format: biochemical
Conditions: 20 μM PIP2, 2 μM ATP, SPA
Readout name: IC50

Study these solved cases before continuing.
Cc1ccc([C@](O)(CO)C(F)F)cc1-c1cnc(N)c(C(=O)NC(C)C)n1 [Example 46]    ≤ 100 nM
Cc1ccc(C(O)(CO)C(F)(F)F)cc1-c1cnc(N)c(-c2cnn(C)c2)n1 (stereo not shown) [Example 2]    ≤ 100 nM
Cc1ccc(C(O)(CO)C(F)(F)F)cc1-c1cnc(N)c(-c2ccns2)n1 (stereo not shown) [Example 6]    ≤ 100 nM

In the following, a different compound is considered.
For the compound Cc1ccc(C(O)(CO)C(F)(F)F)cc1-c1cnc(N)c(-n2cncn2)n1 (single isomer, unassigned) [Example 15] , give its reported IC50. ≤ 100 nM
